# targetDesc: JAK1 (Homo sapiens, UniProt P23458)
# Sequence (P23458 whole entry): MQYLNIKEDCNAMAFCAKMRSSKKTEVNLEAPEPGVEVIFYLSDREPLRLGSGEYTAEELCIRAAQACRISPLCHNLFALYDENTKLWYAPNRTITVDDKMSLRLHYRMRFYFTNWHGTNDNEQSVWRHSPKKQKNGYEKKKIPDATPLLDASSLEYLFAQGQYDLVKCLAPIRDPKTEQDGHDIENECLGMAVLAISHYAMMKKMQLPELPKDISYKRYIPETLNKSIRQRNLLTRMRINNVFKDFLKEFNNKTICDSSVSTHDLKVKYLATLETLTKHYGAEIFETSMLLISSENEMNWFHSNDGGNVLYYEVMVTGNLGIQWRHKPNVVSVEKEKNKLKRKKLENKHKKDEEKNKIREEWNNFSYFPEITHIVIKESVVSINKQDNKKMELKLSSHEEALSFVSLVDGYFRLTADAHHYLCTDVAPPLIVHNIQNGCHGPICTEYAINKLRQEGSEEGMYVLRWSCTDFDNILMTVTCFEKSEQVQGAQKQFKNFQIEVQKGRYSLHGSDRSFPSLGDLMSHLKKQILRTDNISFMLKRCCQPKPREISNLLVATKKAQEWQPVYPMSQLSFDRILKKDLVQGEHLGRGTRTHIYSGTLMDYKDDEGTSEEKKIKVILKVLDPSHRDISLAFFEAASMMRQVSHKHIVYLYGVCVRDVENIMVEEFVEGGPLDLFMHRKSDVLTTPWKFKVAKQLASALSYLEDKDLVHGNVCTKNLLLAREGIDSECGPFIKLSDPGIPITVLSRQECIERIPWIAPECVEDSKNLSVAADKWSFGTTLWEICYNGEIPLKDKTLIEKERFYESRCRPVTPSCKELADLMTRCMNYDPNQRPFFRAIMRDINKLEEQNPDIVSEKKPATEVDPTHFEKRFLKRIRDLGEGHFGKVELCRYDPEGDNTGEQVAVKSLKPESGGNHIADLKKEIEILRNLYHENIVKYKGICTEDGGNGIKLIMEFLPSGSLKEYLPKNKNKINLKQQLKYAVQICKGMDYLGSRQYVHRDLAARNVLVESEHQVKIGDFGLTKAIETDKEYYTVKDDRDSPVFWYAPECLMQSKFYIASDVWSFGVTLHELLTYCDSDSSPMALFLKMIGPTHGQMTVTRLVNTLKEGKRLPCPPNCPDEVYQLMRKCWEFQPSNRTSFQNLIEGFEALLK
# protocolDescription: Enzyme screening kinase assay, JAK1
# Format: biochemical
# measurementConditions: Data 2; read-out: JAK1 IC50 Data 2
Give measured IC50 for each item. Keep answers brief.
The reply should be a number in µM, with the unit left off.

Problem: Tell me its IC50 given N#CCNC(=O)c1ccc(-c2ccnc(Nc3ccc(N4CCC5(CCO5)CC4)cc3)n2)cc1 as the entry.
Solution: 0.0379

Problem: Tell me its IC50 given N#CCNC(=O)c1ccc(-c2ccnc(Nc3ccc(N4C[C@@H]5C[C@H]4CO5)cc3)n2)cc1 as the entry.
Solution: 0.0217

Problem: Tell me its IC50 given N#CCNC(=O)c1ccc(-c2ccnc(Nc3ccc(N4CC5(CCO5)C4)cc3)n2)cc1 as the entry.
Solution: 0.215

Problem: Tell me its IC50 given N#CCNC(=O)c1ccc(-c2ccnc(Nc3ccc(N4C[C@H]5C[C@@H]4CO5)cc3)n2)cc1 as the entry.
Solution: 0.0159

Problem: Tell me its IC50 given N#CCNC(=O)c1ccc(-c2ccnc(Nc3ccc(N4CC5(COC5)C4)cc3)n2)cc1 as the entry.
Solution: 0.0474

Problem: Tell me its IC50 given N#CCNC(=O)c1ccc(-c2ccnc(Nc3ccc(N4CCC[C@]5(CCO5)C4)cc3)n2)cc1 as the entry.
Solution: 0.0102

Problem: Tell me its IC50 given N#CCNC(=O)c1ccc(-c2ccnc(Nc3ccc(N4CC[C@@]5(CCO5)C4)cc3)n2)cc1 as the entry.
Solution: 0.0357

Problem: Tell me its IC50 given N#CCNC(=O)c1ccc(-c2ccnc(Nc3ccc(N4CC5CCC(C4)O5)cc3)n2)cc1 as the entry.
Solution: 0.0286

Problem: Tell me its IC50 given N#CCNC(=O)c1ccc(-c2ccnc(Nc3ccc(N4CCC[C@@]5(CCO5)C4)cc3)n2)cc1 as the entry.
Solution: 0.0198

Problem: Tell me its IC50 given N#CCNC(=O)c1ccc(-c2ccnc(Nc3ccc(N4CC5CC(C4)O5)cc3)n2)cc1 as the entry.
Solution: 0.0417

Problem: Tell me its IC50 given N#CCNC(=O)c1ccc(-c2ccnc(Nc3ccc(N4CC[C@]5(CCO5)C4)cc3)n2)cc1 as the entry.
Solution: 0.0292

---

# targetDesc: JAK2 (Homo sapiens)
# Sequence (O60674 whole entry): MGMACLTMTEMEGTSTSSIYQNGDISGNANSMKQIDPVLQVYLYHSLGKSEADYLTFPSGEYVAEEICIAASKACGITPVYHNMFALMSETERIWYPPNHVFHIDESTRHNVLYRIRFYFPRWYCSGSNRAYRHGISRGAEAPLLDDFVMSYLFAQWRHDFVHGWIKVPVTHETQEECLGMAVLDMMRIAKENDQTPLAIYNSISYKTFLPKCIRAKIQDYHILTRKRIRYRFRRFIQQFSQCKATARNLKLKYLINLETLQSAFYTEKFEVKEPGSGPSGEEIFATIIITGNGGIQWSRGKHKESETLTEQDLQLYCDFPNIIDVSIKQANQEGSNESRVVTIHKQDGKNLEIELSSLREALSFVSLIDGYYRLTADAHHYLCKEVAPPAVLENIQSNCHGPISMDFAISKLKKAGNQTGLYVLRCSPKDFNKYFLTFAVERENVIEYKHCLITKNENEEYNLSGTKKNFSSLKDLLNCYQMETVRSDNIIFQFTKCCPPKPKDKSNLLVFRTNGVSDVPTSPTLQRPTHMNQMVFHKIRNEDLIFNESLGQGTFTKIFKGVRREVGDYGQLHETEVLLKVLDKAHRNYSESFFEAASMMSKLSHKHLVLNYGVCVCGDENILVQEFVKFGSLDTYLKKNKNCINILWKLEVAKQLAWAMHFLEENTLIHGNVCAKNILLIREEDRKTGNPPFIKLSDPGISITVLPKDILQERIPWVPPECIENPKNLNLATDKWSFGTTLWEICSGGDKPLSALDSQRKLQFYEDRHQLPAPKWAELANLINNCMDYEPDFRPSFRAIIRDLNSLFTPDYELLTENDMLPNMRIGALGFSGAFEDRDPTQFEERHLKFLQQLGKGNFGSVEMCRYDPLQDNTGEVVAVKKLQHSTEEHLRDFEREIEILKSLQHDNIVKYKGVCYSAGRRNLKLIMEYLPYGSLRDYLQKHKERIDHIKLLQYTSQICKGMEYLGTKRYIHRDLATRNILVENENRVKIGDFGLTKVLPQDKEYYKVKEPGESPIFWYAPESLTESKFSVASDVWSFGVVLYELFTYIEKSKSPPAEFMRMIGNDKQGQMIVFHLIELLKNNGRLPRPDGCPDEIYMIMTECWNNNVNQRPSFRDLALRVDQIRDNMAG
# protocolDescription: Enzyme screening kinase assay, JAK2
# Assay type: biochemical
# measurementConditions: Data 2; read-out: JAK2 IC50 Data 2
Binary label based on IC50 with cut-off 30 nM: below gives true (1), not below gives false (0).

Problem: Regarding N#CCNC(=O)c1ccc(-c2ccnc(Nc3ccc(N4CC[C@]5(CCO5)C4)cc3)n2)cc1 [Compound 7] , kindly confirm whether its IC50 is beneath 30 nM.
Solution: false (0)

Problem: Regarding N#CCNC(=O)c1ccc(-c2ccnc(Nc3ccc(N4CCC[C@@]5(CCO5)C4)cc3)n2)cc1 [Compound 6] , kindly confirm whether its IC50 is beneath 30 nM.
Solution: true (1)

Problem: Regarding N#CCNC(=O)c1ccc(-c2ccnc(Nc3ccc(N4CC5CC(C4)O5)cc3)n2)cc1 [Compound 3] , kindly confirm whether its IC50 is beneath 30 nM.
Solution: false (0)

Problem: Regarding N#CCNC(=O)c1ccc(-c2ccnc(Nc3ccc(N4CCC[C@]5(CCO5)C4)cc3)n2)cc1 [Compound 5] , kindly confirm whether its IC50 is beneath 30 nM.
Solution: true (1)

Problem: Regarding N#CCNC(=O)c1ccc(-c2ccnc(Nc3ccc(N4CC5(COC5)C4)cc3)n2)cc1 [Compound 11] , kindly confirm whether its IC50 is beneath 30 nM.
Solution: true (1)

Problem: Regarding N#CCNC(=O)c1ccc(-c2ccnc(Nc3ccc(N4CCC5(CCO5)CC4)cc3)n2)cc1 [Compound 2] , kindly confirm whether its IC50 is beneath 30 nM.
Solution: true (1)

Problem: Regarding N#CCNC(=O)c1ccc(-c2ccnc(Nc3ccc(N4CC5(CCO5)C4)cc3)n2)cc1 [Compound 1] , kindly confirm whether its IC50 is beneath 30 nM.
Solution: false (0)

---

# targetDesc: UniProt:P52333
# protocolDescription: Enzyme screening kinase assay, JAK3
# Format: biochemical
# measurementConditions: Data 2; read-out: JAK3 IC50 Data 2
I'd appreciate it if you could label each record using IC50 and these ranges: I (below 30 nM), II (30 nM to below 80 nM), III (80 nM or more)

Problem: // return the class label for N#CCNC(=O)c1ccc(-c2ccnc(Nc3ccc(N4CCC[C@]5(CCO5)C4)cc3)n2)cc1
Solution: II

Problem: // return the class label for N#CCNC(=O)c1ccc(-c2ccnc(Nc3ccc(N4CC[C@]5(CCO5)C4)cc3)n2)cc1
Solution: II

Problem: // return the class label for N#CCNC(=O)c1ccc(-c2ccnc(Nc3ccc(N4CCC[C@@]5(CCO5)C4)cc3)n2)cc1
Solution: II

Problem: // return the class label for N#CCNC(=O)c1ccc(-c2ccnc(Nc3ccc(N4C[C@H]5C[C@@H]4CO5)cc3)n2)cc1
Solution: I

Problem: // return the class label for N#CCNC(=O)c1ccc(-c2ccnc(Nc3ccc(N4CCC5(CCO5)CC4)cc3)n2)cc1
Solution: II

Problem: // return the class label for N#CCNC(=O)c1ccc(-c2ccnc(Nc3ccc(N4CC5CC(C4)O5)cc3)n2)cc1
Solution: III

Problem: // return the class label for N#CCNC(=O)c1ccc(-c2ccnc(Nc3ccc(N4CC5(COC5)C4)cc3)n2)cc1
Solution: I

Problem: // return the class label for N#CCNC(=O)c1ccc(-c2ccnc(Nc3ccc(N4CC5(CCO5)C4)cc3)n2)cc1
Solution: III

Problem: // return the class label for N#CCNC(=O)c1ccc(-c2ccnc(Nc3ccc(N4C[C@@H]5C[C@H]4CO5)cc3)n2)cc1
Solution: I

---

# targetDesc: JAK3 (Homo sapiens)
# Sequence (P52333 whole entry): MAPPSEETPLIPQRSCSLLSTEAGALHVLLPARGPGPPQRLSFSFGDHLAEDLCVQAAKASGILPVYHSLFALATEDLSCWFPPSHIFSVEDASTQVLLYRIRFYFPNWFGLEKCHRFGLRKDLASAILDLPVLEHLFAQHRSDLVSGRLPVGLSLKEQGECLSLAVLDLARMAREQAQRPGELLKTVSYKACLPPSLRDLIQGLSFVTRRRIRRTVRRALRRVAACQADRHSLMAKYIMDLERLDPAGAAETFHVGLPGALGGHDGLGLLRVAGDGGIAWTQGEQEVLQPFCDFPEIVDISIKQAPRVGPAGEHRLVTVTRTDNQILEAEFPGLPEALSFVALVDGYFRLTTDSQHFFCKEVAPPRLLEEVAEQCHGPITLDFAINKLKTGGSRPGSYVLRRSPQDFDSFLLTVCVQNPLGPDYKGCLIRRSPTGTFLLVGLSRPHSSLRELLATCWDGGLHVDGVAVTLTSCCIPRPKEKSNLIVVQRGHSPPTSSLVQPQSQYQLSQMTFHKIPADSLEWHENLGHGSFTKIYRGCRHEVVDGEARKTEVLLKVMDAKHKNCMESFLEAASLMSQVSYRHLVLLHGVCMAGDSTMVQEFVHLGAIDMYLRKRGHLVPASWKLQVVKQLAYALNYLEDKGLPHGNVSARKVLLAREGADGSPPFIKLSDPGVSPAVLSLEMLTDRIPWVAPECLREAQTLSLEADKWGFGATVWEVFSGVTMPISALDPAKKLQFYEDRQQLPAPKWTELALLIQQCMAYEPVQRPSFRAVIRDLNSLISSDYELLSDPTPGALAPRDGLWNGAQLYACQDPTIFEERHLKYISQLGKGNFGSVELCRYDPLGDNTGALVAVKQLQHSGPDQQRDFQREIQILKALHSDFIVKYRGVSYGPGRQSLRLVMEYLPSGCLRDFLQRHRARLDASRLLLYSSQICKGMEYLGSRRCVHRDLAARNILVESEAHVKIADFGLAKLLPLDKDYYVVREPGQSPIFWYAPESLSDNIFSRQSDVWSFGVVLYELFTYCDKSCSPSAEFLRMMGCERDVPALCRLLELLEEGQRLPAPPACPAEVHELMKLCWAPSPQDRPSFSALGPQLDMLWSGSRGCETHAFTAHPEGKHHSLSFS
# protocolDescription: Enzyme screening kinase assay, JAK3
# Format: biochemical
# measurementConditions: Data 1; read-out: JAK3 IC50 Data 1
Give measured pIC50 for each item. Keep answers brief.
// pIC50 is dimensionless: -log10 of concentration (M)

Problem: Tell me its pIC50 given N#CCNC(=O)c1ccc(-c2ccnc(Nc3ccc(N4C[C@H]5C[C@@H]4CO5)cc3)n2)cc1 as the entry.
Solution: 7.66

Problem: Tell me its pIC50 given N#CCNC(=O)c1ccc(-c2ccnc(Nc3ccc(N4C[C@@H]5C[C@H]4CO5)cc3)n2)cc1 as the entry.
Solution: 7.89

Problem: Tell me its pIC50 given N#CCNC(=O)c1ccc(-c2ccnc(Nc3ccc(N4CCC[C@@]5(CCO5)C4)cc3)n2)cc1 as the entry.
Solution: 7.48

Problem: Tell me its pIC50 given N#CCNC(=O)c1ccc(-c2ccnc(Nc3ccc(N4CC[C@]5(CCO5)C4)cc3)n2)cc1 as the entry.
Solution: 7.22

Problem: Tell me its pIC50 given N#CCNC(=O)c1ccc(-c2ccnc(Nc3ccc(N4CC5(CCO5)C4)cc3)n2)cc1 as the entry.
Solution: 6.67

Problem: Tell me its pIC50 given N#CCNC(=O)c1ccc(-c2ccnc(Nc3ccc(N4CC5CCC(C4)O5)cc3)n2)cc1 as the entry.
Solution: 7.03

Problem: Tell me its pIC50 given N#CCNC(=O)c1ccc(-c2ccnc(Nc3ccc(N4CCC5(CCO5)CC4)cc3)n2)cc1 as the entry.
Solution: 7.38

---

Give measured IC50 for each item. Keep answers brief.
# targetDesc: UniProtKB P29597
# Sequence (P29597 whole entry): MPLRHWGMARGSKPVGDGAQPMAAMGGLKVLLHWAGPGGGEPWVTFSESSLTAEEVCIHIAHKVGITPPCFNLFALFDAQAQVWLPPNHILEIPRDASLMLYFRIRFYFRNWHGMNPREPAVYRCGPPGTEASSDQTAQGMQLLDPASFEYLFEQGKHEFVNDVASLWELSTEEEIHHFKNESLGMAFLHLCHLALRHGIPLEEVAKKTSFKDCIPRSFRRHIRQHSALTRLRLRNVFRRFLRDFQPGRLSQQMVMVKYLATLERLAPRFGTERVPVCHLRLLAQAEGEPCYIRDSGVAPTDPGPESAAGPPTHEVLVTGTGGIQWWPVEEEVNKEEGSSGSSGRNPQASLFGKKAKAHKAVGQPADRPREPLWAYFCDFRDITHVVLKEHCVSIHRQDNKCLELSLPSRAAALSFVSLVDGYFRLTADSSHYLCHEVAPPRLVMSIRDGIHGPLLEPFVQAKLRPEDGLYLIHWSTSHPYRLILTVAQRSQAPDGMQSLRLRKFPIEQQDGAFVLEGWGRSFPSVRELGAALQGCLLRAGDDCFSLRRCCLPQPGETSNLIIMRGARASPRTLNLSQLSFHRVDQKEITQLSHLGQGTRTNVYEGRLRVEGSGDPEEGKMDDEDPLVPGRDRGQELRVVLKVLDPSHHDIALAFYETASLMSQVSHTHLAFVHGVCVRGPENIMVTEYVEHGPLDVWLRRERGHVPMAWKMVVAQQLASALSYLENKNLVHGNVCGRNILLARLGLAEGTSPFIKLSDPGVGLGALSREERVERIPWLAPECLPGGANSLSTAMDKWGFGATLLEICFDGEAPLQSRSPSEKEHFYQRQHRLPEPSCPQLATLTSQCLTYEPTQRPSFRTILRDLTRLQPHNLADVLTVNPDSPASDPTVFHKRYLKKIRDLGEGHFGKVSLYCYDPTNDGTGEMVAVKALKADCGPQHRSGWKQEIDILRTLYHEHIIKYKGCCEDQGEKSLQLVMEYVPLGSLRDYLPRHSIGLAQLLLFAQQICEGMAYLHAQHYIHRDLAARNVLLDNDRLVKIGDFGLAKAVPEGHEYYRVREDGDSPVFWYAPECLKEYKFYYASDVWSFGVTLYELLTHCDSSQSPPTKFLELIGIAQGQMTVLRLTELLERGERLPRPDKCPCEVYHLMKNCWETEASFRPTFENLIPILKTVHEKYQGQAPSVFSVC
# protocolDescription: Enzyme screening kinase assay, TYK2
# Assay type: biochemical
# measurementConditions: Data 1; read-out: TYK2 IC50 Data 1
# Experimental: Kinase assays were performed based on the method reported by Anastassiadis, T; et al Nature Biotechnology (2011); 29 (11); p 1039-p 1045 (doi:10.1038/nbt.2017).
Put your answer as a value accompanied by its unit after it.

Problem: Tell me its IC50 given N#CCNC(=O)c1ccc(-c2ccnc(Nc3ccc(N4CC5(CCO5)C4)cc3)n2)cc1 as the entry.
Solution: 38 nM

Problem: Tell me its IC50 given N#CCNC(=O)c1ccc(-c2ccnc(Nc3ccc(N4CC5CC(C4)O5)cc3)n2)cc1 as the entry.
Solution: 6.83 nM

Problem: Tell me its IC50 given N#CCNC(=O)c1ccc(-c2ccnc(Nc3ccc(N4C[C@H]5C[C@@H]4CO5)cc3)n2)cc1 as the entry.
Solution: 4.31 nM

---

Give measured pIC50 for each item. Keep answers brief.
# targetDesc: JAK3 (Homo sapiens)
# protocolDescription: Enzyme screening kinase assay, JAK3
# Format: biochemical
# measurementConditions: Data 1; read-out: JAK3 IC50 Data 1
// pIC50 is dimensionless: -log10 of concentration (M)

Problem: Tell me its pIC50 given N#CCNC(=O)c1ccc(-c2ccnc(Nc3ccc(N4CC5CC(C4)O5)cc3)n2)cc1 [Compound 3] as the entry.
Solution: 7.10

Problem: Tell me its pIC50 given N#CCNC(=O)c1ccc(-c2ccnc(Nc3ccc(N4CCC[C@]5(CCO5)C4)cc3)n2)cc1 [Compound 5] as the entry.
Solution: 7.22

Problem: Tell me its pIC50 given N#CCNC(=O)c1ccc(-c2ccnc(Nc3ccc(N4CC[C@@]5(CCO5)C4)cc3)n2)cc1 [Compound 8] as the entry.
Solution: 7.10

Problem: Tell me its pIC50 given N#CCNC(=O)c1ccc(-c2ccnc(Nc3ccc(N4CC5(COC5)C4)cc3)n2)cc1 [Compound 11] as the entry.
Solution: 7.47

FYI, the data here is from patent US8809359B2.
